IC50 overview
Target: recombinant human DPP8 (Homo sapiens)
Construct: purchased PBS Bioscience
Sequence (Q6V1X1 whole entry): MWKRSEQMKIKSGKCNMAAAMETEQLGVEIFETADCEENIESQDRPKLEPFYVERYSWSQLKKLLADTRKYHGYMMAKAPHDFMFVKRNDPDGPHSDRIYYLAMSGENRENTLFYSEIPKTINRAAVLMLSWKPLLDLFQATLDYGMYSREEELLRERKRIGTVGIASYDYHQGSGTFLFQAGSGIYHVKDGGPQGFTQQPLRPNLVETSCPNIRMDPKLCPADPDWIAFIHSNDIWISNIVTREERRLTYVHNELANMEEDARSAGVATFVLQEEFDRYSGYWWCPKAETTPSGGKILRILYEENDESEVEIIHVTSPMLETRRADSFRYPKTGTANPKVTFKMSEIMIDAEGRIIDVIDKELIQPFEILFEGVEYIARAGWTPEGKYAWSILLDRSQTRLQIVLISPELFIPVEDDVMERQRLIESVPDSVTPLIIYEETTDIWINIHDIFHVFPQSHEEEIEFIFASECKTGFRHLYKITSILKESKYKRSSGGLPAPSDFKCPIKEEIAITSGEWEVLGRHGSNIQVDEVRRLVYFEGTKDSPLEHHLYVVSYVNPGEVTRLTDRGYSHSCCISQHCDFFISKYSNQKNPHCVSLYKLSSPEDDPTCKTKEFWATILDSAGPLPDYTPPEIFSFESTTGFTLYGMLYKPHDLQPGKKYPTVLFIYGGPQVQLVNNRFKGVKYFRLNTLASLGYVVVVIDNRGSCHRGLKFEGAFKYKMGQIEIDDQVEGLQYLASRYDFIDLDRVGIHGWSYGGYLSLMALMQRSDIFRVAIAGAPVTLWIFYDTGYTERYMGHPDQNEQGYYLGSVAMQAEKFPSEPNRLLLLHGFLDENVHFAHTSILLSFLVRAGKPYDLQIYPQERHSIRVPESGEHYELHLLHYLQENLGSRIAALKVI
Experiment: DPP8 inhibition, fluorogenic substrate Z-Ala-Pro-AMC
Format: biochemical
Conditions: 25° C., Z-Ala-Pro-AMC substrate

Cc1ccc2ncccc2c1NC1CCN(CC(=O)N2CCC[C@H]2C#N)CC1 :: > 100 µM
N#C[C@@H]1CCCN1C(=O)CN1CC[C@@H](Nc2cnc3ccccc3c2)C1 :: > 10 µM
COc1ccc2ncc(N(C)[C@H]3CCN(CC(=O)N4CCC[C@H]4C#N)C3)cc2c1 :: ≥ 100 µM
N#C[C@@H]1CCCN1C(=O)CN1CC[C@H](Oc2cccc3cnccc23)C1 :: > 100 µM
N#C[C@@H]1CCCN1C(=O)CN1CC[C@H](Oc2cccc3[nH]c(=O)ccc23)C1 :: 93.2 µM

Okay, now this compound:
(Q) Give the value of IC50 reported for the following: `Cc1ccc2ncc(N(C)[C@H]3CCN(CC(=O)N4CCC[C@H]4C#N)C3)cc2c1`
(A) ≥ 100 µM

###

Target: UniProtKB P27487
Sequence (P27487 whole entry): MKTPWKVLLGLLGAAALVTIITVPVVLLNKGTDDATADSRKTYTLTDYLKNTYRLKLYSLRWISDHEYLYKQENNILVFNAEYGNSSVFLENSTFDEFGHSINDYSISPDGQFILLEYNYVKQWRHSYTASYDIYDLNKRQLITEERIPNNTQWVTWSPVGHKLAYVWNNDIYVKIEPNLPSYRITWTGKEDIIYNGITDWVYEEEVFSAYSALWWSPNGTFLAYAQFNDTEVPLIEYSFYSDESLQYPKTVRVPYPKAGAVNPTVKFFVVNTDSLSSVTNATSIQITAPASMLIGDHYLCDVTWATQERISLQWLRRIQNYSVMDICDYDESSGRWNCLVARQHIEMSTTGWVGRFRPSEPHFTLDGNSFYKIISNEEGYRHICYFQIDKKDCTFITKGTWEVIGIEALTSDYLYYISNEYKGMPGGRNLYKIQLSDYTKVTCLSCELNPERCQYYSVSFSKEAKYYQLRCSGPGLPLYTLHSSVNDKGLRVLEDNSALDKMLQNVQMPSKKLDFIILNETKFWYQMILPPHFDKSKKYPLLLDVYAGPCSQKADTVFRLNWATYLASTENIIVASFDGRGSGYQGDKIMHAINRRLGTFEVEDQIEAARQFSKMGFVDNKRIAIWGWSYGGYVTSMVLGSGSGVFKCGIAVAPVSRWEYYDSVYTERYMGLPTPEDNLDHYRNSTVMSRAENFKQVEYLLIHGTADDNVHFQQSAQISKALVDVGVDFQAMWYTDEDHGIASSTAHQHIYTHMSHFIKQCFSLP
Assay: DPP4 inhibition, fluorogenic substrate H-Gly-Pro-AMC
Type: biochemical
Design: purchased R&D Systems
Details: recombinant human DPP4
measurement label: IC50

Worked cases, IC50 given:
COc1cc2nccc(O[C@H]3CCN(CC(=O)N4C[C@@H](F)C[C@H]4C#N)C3)c2cc1OC [Example 300] :: > 10 µM
Cc1ccc2ncccc2c1N[C@H]1CCN(CC(=O)N2CCC[C@H]2C#N)C1 [Example 239] :: > 10 µM
N#C[C@@H]1C[C@H](F)CN1C(=O)CN1CCC(Nc2cnc3ncccc3c2)CC1 [Example 368] :: ≥ 10 µM
CN(c1ccc2ccccc2n1)C1CCN(CC(=O)N2CCC[C@H]2C#N)CC1 [Example 307] :: > 10 µM
N#C[C@@H]1C[C@H](F)CN1C(=O)CN1CC[C@H](Nc2cnc3ncccc3c2)C1 [Example 272] :: 2.8 µM
N#C[C@@H]1CCCN1C(=O)CN1CC[C@H](Nc2ccc(F)c3ncccc23)C1 [Example 244] :: > 10 µM
N#C[C@@H]1CCCN1C(=O)CN1CC[C@H](Nc2ccc(OC(F)(F)F)c3ncccc23)C1 [Example 246] :: > 10 µM
CCN(c1ccc2ncccc2c1)C1CCN(CC(=O)N2C[C@@H](F)C[C@H]2C#N)CC1 [Example 306] :: 24.3 µM
COc1ccc2ncc(NC3CCN(CC(=O)N4C[C@@H](F)C[C@H]4C#N)CC3)cc2c1 [Example 365] :: ≥ 10 µM
N#C[C@@H]1C[C@H](F)CN1C(=O)CN1CCC(Oc2nccc3ccccc23)CC1 [Example 419] :: > 10 µM

(Q) Give the value of IC50 reported for the following: N#C[C@@H]1C[C@H](F)CN1C(=O)CN1CCC(Nc2ccc3cnccc3c2)CC1 [Example 341]
(A) > 10 µM

(Q) Give the value of IC50 reported for the following: COc1cccc2cc(N(C)C3CCN(CC(=O)N4CCC[C@H]4C#N)CC3)cnc12 [Example 325]
(A) ≥ 100 µM

(Q) Give the value of IC50 reported for the following: N#C[C@@H]1C[C@H](F)CN1C(=O)CN1CCC(Nc2cccc3cnc(Cl)cc23)CC1 [Example 352]
(A) > 10 µM

###

Target: recombinant human DPP9 (Homo sapiens)
Construct: purchased R&D Systems
Sequence (Q86TI2 whole entry): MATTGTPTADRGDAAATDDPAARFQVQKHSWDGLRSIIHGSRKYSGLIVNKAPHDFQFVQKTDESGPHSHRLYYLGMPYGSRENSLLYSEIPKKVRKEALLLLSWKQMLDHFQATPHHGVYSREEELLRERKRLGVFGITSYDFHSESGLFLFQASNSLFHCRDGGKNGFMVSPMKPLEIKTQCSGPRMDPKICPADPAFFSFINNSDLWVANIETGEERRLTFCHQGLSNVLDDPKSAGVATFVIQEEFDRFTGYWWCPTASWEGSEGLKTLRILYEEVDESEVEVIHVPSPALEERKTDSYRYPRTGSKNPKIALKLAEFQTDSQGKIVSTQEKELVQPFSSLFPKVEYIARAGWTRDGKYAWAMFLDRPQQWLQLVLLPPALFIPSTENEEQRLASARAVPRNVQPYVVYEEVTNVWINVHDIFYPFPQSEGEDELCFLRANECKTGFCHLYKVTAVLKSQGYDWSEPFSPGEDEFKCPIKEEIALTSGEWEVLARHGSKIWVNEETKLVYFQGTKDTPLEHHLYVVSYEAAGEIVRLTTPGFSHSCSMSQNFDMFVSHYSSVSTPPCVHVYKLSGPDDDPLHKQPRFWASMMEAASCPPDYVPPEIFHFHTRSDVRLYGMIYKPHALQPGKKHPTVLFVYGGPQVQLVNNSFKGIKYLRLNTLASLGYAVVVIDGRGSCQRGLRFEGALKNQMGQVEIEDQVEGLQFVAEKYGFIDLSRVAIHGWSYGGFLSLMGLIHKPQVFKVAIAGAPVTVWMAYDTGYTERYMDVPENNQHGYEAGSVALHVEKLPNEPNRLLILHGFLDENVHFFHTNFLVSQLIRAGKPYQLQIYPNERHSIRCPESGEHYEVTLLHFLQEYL
Test: DPP9 inhibition, fluorogenic substrate H-Gly-Pro-AMC
Assay type: biochemical
Settings: recombinant human DPP9
pIC50 overview
Please express pIC50 as -log10 of the molar concentration.

CCOc1ccc(N[C@H]2CCN(CC(=O)N3CCC[C@H]3C#N)C2)c2cccnc12 :: 5.26
CN(c1ccc(C(F)(F)F)c2ncccc12)[C@H]1CCN(CC(=O)N2C[C@@H](F)C[C@H]2C#N)C1 :: 5.43
N#C[C@@H]1C[C@H](F)CN1C(=O)CN1CC[C@@H](Nc2c(F)ccc3ncccc23)C1 :: 5.53
CN(c1ccc2ncccc2c1)C1CCN(CC(=O)N2CCC[C@H]2C#N)CC1 :: 4.18

(Q) Give the value of pIC50 reported for the following: `CN(c1cccc2cnccc12)C1CCN(CC(=O)N2CCC[C@H]2C#N)CC1`
(A) 4.86

Where do the numbers come from? From patent US11655235B2.
